Items are presented alongside their recorded % Inhibition.
# Target: MICB*005 on HCC1534 cells (human); note: test concentration or dose not given here
# Assay Notes: cell-based or functional assay
Write the answer as a number in %, unit excluded.

Sample answers from the record:
1D5v21 (antibody, IgG1, V domains shown, humanized variant of 1D5) VH: EIQLVQSGAEVKKPGASVKVSCKASGYAFTSQNIYWVRQAPGQGLEWIGYIEPYNVVPMYNPKFKGRATITVDKSTSTAYLELSSLRSEDTAVYYCARSGSSNFDYWGQGTLVTVSS VL: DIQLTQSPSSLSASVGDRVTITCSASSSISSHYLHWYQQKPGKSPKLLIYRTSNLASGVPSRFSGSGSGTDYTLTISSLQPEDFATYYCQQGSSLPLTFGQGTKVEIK
25
1D5v5 (antibody, IgG1, V domains shown, humanized variant of 1D5) VH: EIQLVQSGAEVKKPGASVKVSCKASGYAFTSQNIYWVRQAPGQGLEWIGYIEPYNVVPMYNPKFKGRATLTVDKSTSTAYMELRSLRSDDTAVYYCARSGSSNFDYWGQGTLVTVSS VL: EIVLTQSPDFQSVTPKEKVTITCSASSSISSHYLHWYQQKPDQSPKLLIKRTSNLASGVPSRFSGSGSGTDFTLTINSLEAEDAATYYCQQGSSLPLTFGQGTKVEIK
32
1D5v11 (antibody, IgG1, V domains shown, humanized variant of 1D5) VH: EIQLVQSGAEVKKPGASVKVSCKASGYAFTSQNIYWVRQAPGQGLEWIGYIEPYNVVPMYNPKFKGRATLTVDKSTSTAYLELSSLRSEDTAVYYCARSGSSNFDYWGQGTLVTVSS VL: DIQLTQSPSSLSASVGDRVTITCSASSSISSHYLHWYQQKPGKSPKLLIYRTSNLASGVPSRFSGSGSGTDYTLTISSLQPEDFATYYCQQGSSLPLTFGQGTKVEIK
36
1D5v9 (antibody, IgG1, V domains shown, humanized variant of 1D5) VH: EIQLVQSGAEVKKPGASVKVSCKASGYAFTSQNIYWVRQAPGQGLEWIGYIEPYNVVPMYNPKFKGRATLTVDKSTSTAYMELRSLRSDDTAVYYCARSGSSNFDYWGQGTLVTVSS VL: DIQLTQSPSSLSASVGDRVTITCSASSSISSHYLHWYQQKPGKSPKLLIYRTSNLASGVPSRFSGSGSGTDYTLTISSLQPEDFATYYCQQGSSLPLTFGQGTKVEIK
41

We now examine a further binder.
Please give the documented % Inhibition of 1D5v15 (antibody, IgG1, V domains shown, humanized variant of 1D5) VH: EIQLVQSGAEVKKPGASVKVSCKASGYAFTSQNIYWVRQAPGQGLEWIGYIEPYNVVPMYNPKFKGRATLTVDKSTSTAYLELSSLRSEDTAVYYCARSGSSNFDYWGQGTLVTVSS VL: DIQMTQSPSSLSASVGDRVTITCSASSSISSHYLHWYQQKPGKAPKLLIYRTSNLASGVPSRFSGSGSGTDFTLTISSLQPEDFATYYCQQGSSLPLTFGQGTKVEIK
39
